# TESTED_ON: CYP3A4 (Homo sapiens)
# EXPERIMENTAL_PROTOCOL: Determination of compound Kiapp against recombinant CYP3A4 enzyme (BFC fluorescent substrate)
# Type: biochemical
# TEST_PARAMETERS: Baculo. enzyme preparation, read-out: Kiapp (BFC, Baculo.)
Mark 1 (yes) only when Ki stays strictly below 100 nM. Values equal to the cut-off are 0 (no).

Cc1ccncc1NS(=O)(=O)c1ccccc1C(=O)N(C)Cc1ccc(C(F)(F)F)cc1 = 0 (no)
Cc1cncc(NS(=O)(=O)c2ccccc2C(=O)NCCC(C)C)c1 = 1 (yes)
CCOc1ccncc1NS(=O)(=O)c1ccccc1C(=O)N(C)Cc1ccc(F)c(F)c1 = 1 (yes)
Cc1cncc(NS(=O)(=O)c2ccccc2C(=O)NC(C)C(C)C)c1 (stereo not shown) = 0 (no)
COc1cncc(NS(=O)(=O)c2ccccc2C(=O)NC2CCCCC2)c1 = 0 (no)
COc1ccc(CNC(=O)c2ccccc2S(=O)(=O)Nc2cncc(OC)c2)cc1 = 0 (no)

Okay, next one:
Lookup: State whether 100 nM exceeds Ki recorded for O=C(c1ccccc1S(=O)(=O)Nc1cccnc1)N1CCc2ccccc2C1 .
Found: 0 (no)

====

# TESTED_ON: CYP3A4 (Homo sapiens)
# EXPERIMENTAL_PROTOCOL: Determination of compound Kiapp against recombinant CYP3A4 enzyme (BFC fluorescent substrate)
# Type: biochemical
# TEST_PARAMETERS: Baculo. enzyme preparation, read-out: Kiapp (BFC, Baculo.)
pKi: −log10 of the molar value.
Mark Condition not met for pKi values under 7, and Condition met for everything at or above.

Solved entries (count: 8):
CCOCCNC(=O)c1ccccc1S(=O)(=O)Nc1cnccc1OC = Condition not met
C[C@@H]1CN(C(=O)c2ccccc2S(=O)(=O)Nc2cccnc2)C[C@H](C)O1 = Condition not met
CCCCCN(C)C(=O)c1ccccc1S(=O)(=O)Nc1cncc(OC)c1 = Condition met
COc1cncc(NS(=O)(=O)c2ccccc2C(=O)N[C@@H](C)C(C)(C)C)c1 = Condition not met
COc1cncc(NS(=O)(=O)c2ccccc2C(=O)NCC(F)(F)C(F)(F)C(F)(F)F)c1 = Condition not met
COc1ccncc1NS(=O)(=O)c1ccccc1C(=O)N(C)Cc1ccccc1F = Condition not met
COc1ccncc1NS(=O)(=O)c1ccccc1C(=O)NCCc1ccccc1C = Condition met
COc1cncc(NS(=O)(=O)c2ccccc2C(=O)NC(C)(C)c2ccc(F)c(F)c2)c1 = Condition met

Lookup: Is reported pKi greater than or equal to 7 here: COc1cncc(NS(=O)(=O)c2ccc(OCCN3CCOCC3)cc2C(=O)NCc2ccc(F)cc2)c1
Found: Condition met

Lookup: Would you say CCOc1ccncc1NS(=O)(=O)c1ccccc1C(=O)NC(C)(C)C shows pKi at minimum 7?
Found: Condition met

====

# Ki per entry
# TESTED_ON: CYP3A4 (Homo sapiens, UniProt P08684)
# Sequence (P08684 whole entry): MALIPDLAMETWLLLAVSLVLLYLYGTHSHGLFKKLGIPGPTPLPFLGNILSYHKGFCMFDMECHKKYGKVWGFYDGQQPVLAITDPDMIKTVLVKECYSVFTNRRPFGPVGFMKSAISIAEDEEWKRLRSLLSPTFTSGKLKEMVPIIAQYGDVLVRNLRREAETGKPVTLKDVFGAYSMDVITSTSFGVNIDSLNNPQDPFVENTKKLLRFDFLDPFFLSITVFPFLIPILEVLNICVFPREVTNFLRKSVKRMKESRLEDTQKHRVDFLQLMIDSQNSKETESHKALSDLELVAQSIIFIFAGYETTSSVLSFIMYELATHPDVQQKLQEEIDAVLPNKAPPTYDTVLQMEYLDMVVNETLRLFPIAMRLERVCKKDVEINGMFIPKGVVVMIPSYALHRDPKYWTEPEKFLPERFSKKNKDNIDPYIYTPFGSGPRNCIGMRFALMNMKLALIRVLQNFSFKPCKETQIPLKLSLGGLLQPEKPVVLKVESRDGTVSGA
# EXPERIMENTAL_PROTOCOL: Determination of compound Kiapp against recombinant CYP3A4 enzyme (BFC fluorescent substrate)
# Format: biochemical
# TEST_PARAMETERS: Baculo. enzyme preparation, read-out: Kiapp (BFC, Baculo.)
Write it as a number; the unit nM goes unstated.

Cc1ccncc1NS(=O)(=O)c1ccccc1C(=O)N(C)Cc1ccc(F)cc1 [Example 144] = 327

Lookup: Record CCOc1cncc(NS(=O)(=O)c2ccccc2C(=O)NC2CCCC2)c1 [Example 287] : what is its Ki with CYP3A4 (Homo sapiens, UniProt P08684)?
Found: 216

====

# TESTED_ON: CYP3A4 (Homo sapiens, UniProt P08684)
# EXPERIMENTAL_PROTOCOL: Determination of compound Kiapp against recombinant CYP3A4 enzyme (BFC fluorescent substrate)
# Assay type: biochemical
# TEST_PARAMETERS: Baculo. enzyme preparation, read-out: Kiapp (BFC, Baculo.)
ENDPOINT_LABEL: pKi
Schema: pKi number; meaning minus log10 of the concentration expressed in molar units.

COc1cncc(NS(=O)(=O)c2ccccc2C(=O)NCCc2cc(F)ccc2F)c1 [Example 197] = 7.16
CCOc1cncc(NS(=O)(=O)c2ccccc2C(=O)NC(C)(C)CC)c1 [Example 300] = 7.24

Please examine the following record next.
Lookup: Can you look up the measured pKi of CCOc1ccccc1CNC(=O)c1ccccc1S(=O)(=O)Nc1cccnc1 [Example 72] for me?
Found: 6.79

====

# TESTED_ON: UniProt P08684
# EXPERIMENTAL_PROTOCOL: Determination of compound Kiapp against recombinant CYP3A4 enzyme (BFC fluorescent substrate)
# Type: biochemical
# TEST_PARAMETERS: Super. enzyme preparation, read-out: Kiapp (BFC, Super.)
ENDPOINT_LABEL: log10(Ki) (log10 of the value in nM)
Hey, these are logged values: log10 of Ki, nM being the unit before logging.

Solved cases (5 shown):
Cc1cncc(NS(=O)(=O)c2ccccc2C(=O)N(C)Cc2cccc(F)c2)c1 = 0.87
CCCN(CC1CC1)C(=O)c1ccccc1S(=O)(=O)Nc1cncc(C)c1 = 1.04
Cc1cncc(NS(=O)(=O)c2ccccc2C(=O)NC(C)(C)C)c1 = 1.40
COc1cncc(NS(=O)(=O)c2ccccc2C(=O)N2CCC(O)CC2)c1 = 2.71
COc1ccncc1NS(=O)(=O)c1ccccc1C(=O)NCc1ccc(F)c(F)c1 = 1.15

Consider the record given below.
Lookup: // query log10(Ki) value for entry COc1cncc(NS(=O)(=O)c2ccccc2C(=O)NCCN2CCCC2)c1
Found: 2.24

====

# TESTED_ON: CYP3A4 (Homo sapiens)
# EXPERIMENTAL_PROTOCOL: Determination of IC50 against CYP3A4 by measurement of inhibition of testosterone metabolism (human liver microsomes, 6-β-OH-testosterone by LC-MS/MS)
# Format: biochemical
# Design: 0.1 mg/mL human liver microsomes
# TEST_PARAMETERS: read-out: IC50 (Testo.)
Strictly below 40 nM in IC50: met. Otherwise: not met.

Solved entries:
CC(C)(CNC(=O)c1ccccc1S(=O)(=O)Nc1cccnc1)N1CCOCC1 = not met
CCOc1ccccc1CNC(=O)c1ccccc1S(=O)(=O)Nc1cccnc1 = met
O=C(c1ccccc1S(=O)(=O)Nc1cccnc1)N1CCc2ccccc2C1 = met
O=C(NC1(CO)CCCC1)c1ccccc1S(=O)(=O)Nc1cccnc1 = not met
CN(CC1CCCC1)C(=O)c1ccccc1S(=O)(=O)Nc1cccnc1 = met
COc1cncc(NS(=O)(=O)c2ccccc2C(=O)NC(C)(C)C)c1 = not met

Lookup: Does the reported IC50 of the following compound sit strictly below 40 nM? CN(C)CCNC(=O)c1ccccc1S(=O)(=O)Nc1cccnc1
Found: not met

Lookup: Is 40 nM strictly greater than the compound's reported IC50? compound: COc1cncc(NS(=O)(=O)c2ccccc2C(=O)NC2CCCC(C)C2)c1 (centres unmarked)
Found: met

====

# TESTED_ON: CYP3A4 (Homo sapiens)
# EXPERIMENTAL_PROTOCOL: Determination of compound Kiapp against recombinant CYP3A4 enzyme (BFC fluorescent substrate)
# Format: biochemical
# TEST_PARAMETERS: Baculo. enzyme preparation, read-out: Kiapp (BFC, Baculo.)
ENDPOINT_LABEL: Ki

Reference set (8 entries):
Cc1cncc(NS(=O)(=O)c2ccccc2C(=O)NCC(C)(C)C)c1 = 204 nM
O=C(c1ccccc1S(=O)(=O)Nc1cccnc1)N1CCN(c2ccc(F)cc2)CC1 = 251 nM
Cc1cncc(NS(=O)(=O)c2ccccc2C(=O)N(C)Cc2ccc(F)c(F)c2)c1 = 27.2 nM
O=C(NCC1CC1)c1ccccc1S(=O)(=O)Nc1cccnc1 = > 1000 nM
CN(c1cccnc1)S(=O)(=O)c1ccccc1C(=O)N1CCOCC1 = 884 nM
COc1cncc(NS(=O)(=O)c2ccc(F)cc2C(=O)NCc2ccc(F)cc2)c1 = 143 nM
COc1cncc(NS(=O)(=O)c2ccc(OCCCN(C)C)cc2C(=O)NCc2ccc(F)cc2)c1 = 145 nM
O=C(c1ccccc1S(=O)(=O)Nc1cccnc1)N1Cc2ccccc2C1 = 362 nM

Lookup: Entry COCCN(C)C(=O)c1ccccc1S(=O)(=O)Nc1cncc(C)c1 has what Ki?
Found: 469 nM

Lookup: Need Ki, item Cc1cncc(NS(=O)(=O)c2ccccc2C(=O)NCc2ccc(S(C)(=O)=O)cc2)c1
Found: 751 nM

Lookup: What does the record list as Ki for CC1(C)CCCN(C(=O)c2ccccc2S(=O)(=O)Nc2cccnc2)C1 ?
Found: 324 nM

====

Reported pIC50 values for a set of compounds
# TESTED_ON: CYP3A4 (Homo sapiens)
# EXPERIMENTAL_PROTOCOL: Determination of IC50 against CYP3A4 by measurement of inhibition of testosterone metabolism (human liver microsomes, 6-β-OH-testosterone by LC-MS/MS)
# Type: biochemical
# Design: 0.1 mg/mL human liver microsomes
# TEST_PARAMETERS: read-out: IC50 (Testo.)
Kindly note that pIC50 refers to -log10 of the concentration in mol/L and answer with the value alone.

A selection of reference data follows.
CC(C)CCNC(=O)c1ccccc1S(=O)(=O)Nc1cccnc1 = 7.29
COCCNC(=O)c1ccccc1S(=O)(=O)Nc1cncc(OC)c1 = 6.52
COc1cncc(NS(=O)(=O)c2ccccc2C(=O)NC(C)CC(C)C)c1 (centres unmarked) = 7.92

Lookup: Which pIC50 value is on record for COc1cncc(NS(=O)(=O)c2ccccc2C(=O)NC2C3CC4CC(C3)CC2C4)c1 (centres unmarked) ?
Found: 7.80

Lookup: If you can, please state the reported pIC50 value of COc1cncc(NS(=O)(=O)c2ccccc2C(=O)NC2CCCCC2)c1 .
Found: 7.55
